Biological target: IDH2 R172K (Homo sapiens, UniProt P48735, R172K)
Test: Inhibition of 2-HG production in IDH2 mutant U-87 MG cells
Format: cell-based
Conditions: 72 hours incubation, 12.5K cells/well, 150 μl media/well, read-out: IC50, inhibition of 2-HG production
MEASURED PROPERTY: IC50 (nM)
Response body: numeric value in nM, unit text excluded.

Give the measured IC50 of C=CC(=O)N1CCN([C@@H](CC2CC2)c2ccc([C@H](C)Nc3ncc4c(n3)N(CC)C(=O)OC4)cc2)CC1 [Compound A] .
13.5

###

Biological target: IDH2 R140L (Homo sapiens, UniProt P48735, R140L)
Construct: expressed in transfected cells; host or cells: U-87 MG
Sequence (P48735 40-452 R140L): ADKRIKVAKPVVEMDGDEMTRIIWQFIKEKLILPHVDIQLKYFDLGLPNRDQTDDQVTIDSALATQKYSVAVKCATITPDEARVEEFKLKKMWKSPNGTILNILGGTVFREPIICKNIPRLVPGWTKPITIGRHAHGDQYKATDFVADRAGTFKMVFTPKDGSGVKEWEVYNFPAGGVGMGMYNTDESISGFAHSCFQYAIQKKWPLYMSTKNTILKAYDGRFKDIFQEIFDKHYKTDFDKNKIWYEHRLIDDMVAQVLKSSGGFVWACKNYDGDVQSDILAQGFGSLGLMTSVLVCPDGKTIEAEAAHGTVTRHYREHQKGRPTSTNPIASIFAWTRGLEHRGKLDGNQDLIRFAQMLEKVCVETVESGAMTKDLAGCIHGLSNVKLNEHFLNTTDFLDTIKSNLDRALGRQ
Test: Inhibition of 2-HG production in IDH2 mutant U-87 MG cells
Format: cell-based
Details: 16 hours incubation, 50K cells/well, 100 μl media/well, read-out: Relative IC50 (nM) Mean, inhibition of 2-HG production
MEASURED PROPERTY: IC50 (nM)
Entry rule: numbers only, all in nM.

So what IC50 did C=CC(=O)N1CCN([C@@H](CC2CC2)c2ccc([C@H](C)Nc3ncc4c(n3)N(CC)C(=O)OC4)cc2)CC1 [Compound A] get with IDH2 R140L (Homo sapiens, UniProt P48735, R140L)?
243

###

Molecular target: IDH2 R140Q (Homo sapiens, UniProt P48735, R140Q)
Construct: expressed in transfected cells; host or cells: U-87 MG
Sequence (P48735 40-452 R140Q): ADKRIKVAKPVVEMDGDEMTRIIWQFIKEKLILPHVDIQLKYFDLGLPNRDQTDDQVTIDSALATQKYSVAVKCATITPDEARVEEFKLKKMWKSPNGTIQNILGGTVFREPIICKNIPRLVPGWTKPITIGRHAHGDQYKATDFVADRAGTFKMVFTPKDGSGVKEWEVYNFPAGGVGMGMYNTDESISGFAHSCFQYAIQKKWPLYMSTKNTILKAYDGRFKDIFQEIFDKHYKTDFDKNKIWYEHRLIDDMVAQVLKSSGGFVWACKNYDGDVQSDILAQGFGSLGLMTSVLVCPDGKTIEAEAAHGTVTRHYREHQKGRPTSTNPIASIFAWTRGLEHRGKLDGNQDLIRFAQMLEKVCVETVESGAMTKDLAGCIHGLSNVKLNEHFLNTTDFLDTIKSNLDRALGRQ
Experiment: Inhibition of 2-HG production in IDH2 mutant U-87 MG cells
Type: cell-based
Settings: 16 hours incubation, 50K cells/well, 100 μl media/well, read-out: Relative IC50 (nM) Mean, inhibition of 2-HG production
MEASURED PROPERTY: IC50 (nM)
The figure you give is taken to be in nM; do not add the unit.

Could you tell me which IC50 is on file for C=CC(=O)N1CCN([C@@H](CC2CC2)c2ccc([C@H](C)Nc3ncc4c(n3)N(CC)C(=O)OC4)cc2)CC1 ?
223

###

Target: IDH2 R140Q_I319M cis (Homo sapiens, UniProt P48735, I319M/R140Q)
Construct: expressed in transfected cells; host or cells: U-87 MG
Assay: Inhibition of 2-HG production in IDH2 mutant U-87 MG cells
Format: cell-based
Conditions: 16 hours incubation, 50K cells/well, 100 μl media/well, read-out: Relative IC50 (nM) Mean, inhibition of 2-HG production
MEASURED PROPERTY: IC50
Number plus unit, in that order.

Any idea what IC50 was measured for C=CC(=O)N1CCN([C@@H](CC2CC2)c2ccc([C@H](C)Nc3ncc4c(n3)N(CC)C(=O)OC4)cc2)CC1 ?
29 nM

###

Biological target: IDH2 R140Q_Q316E cis (Homo sapiens, UniProt P48735, Q316E/R140Q)
Construct: expressed in transfected cells; host or cells: U-87 MG
Experiment: Inhibition of 2-HG production in IDH2 mutant U-87 MG cells
Assay type: cell-based
Details: 72 hours incubation, 12.5K cells/well, 150 μl media/well, read-out: IC50, inhibition of 2-HG production
MEASURED PROPERTY: IC50 (nM)
// units = nM; emit number, no label

Quick check: IC50 of C=CC(=O)N1CCN([C@@H](CC2CC2)c2ccc([C@H](C)Nc3ncc4c(n3)N(CC)C(=O)OC4)cc2)CC1 ?
22

###

Biological target: IDH2 R140Q_P167R cis (Homo sapiens, UniProt P48735, P167R/R140Q)
Construct: expressed in transfected cells; host or cells: U-87 MG
Test: Inhibition of 2-HG production in IDH2 mutant U-87 MG cells
Type: cell-based
Settings: 16 hours incubation, 50K cells/well, 100 μl media/well, read-out: Relative IC50 (nM) Mean, inhibition of 2-HG production
MEASURED PROPERTY: IC50 (nM)
Reply with just the number (in nM).

Field request: IC50 | item: C=CC(=O)N1CCN([C@@H](CC2CC2)c2ccc([C@H](C)Nc3ncc4c(n3)N(CC)C(=O)OC4)cc2)CC1
639

###

Target: IDH2 R140L_Q316E trans (Homo sapiens, UniProt P48735, Q316E/R140L)
Construct: expressed in transfected cells; host or cells: U-87 MG
Assay: Inhibition of 2-HG production in IDH2 mutant U-87 MG cells
Type: cell-based
Conditions: 16 hours incubation, 50K cells/well, 100 μl media/well, read-out: Relative IC50 (nM) Mean, inhibition of 2-HG production
MEASURED PROPERTY: IC50 (nM)
A number alone suffices; assume nM.

# input compound: C=CC(=O)N1CCN([C@@H](CC2CC2)c2ccc([C@H](C)Nc3ncc4c(n3)N(CC)C(=O)OC4)cc2)CC1 [Compound A] ; wanted: its IC50
262

###

Target: IDH2 R172W_P167R cis (Homo sapiens, UniProt P48735, P167R/R172W)
Construct: expressed in transfected cells; host or cells: U-87 MG
Sequence (P48735 40-452 P167R/R172W): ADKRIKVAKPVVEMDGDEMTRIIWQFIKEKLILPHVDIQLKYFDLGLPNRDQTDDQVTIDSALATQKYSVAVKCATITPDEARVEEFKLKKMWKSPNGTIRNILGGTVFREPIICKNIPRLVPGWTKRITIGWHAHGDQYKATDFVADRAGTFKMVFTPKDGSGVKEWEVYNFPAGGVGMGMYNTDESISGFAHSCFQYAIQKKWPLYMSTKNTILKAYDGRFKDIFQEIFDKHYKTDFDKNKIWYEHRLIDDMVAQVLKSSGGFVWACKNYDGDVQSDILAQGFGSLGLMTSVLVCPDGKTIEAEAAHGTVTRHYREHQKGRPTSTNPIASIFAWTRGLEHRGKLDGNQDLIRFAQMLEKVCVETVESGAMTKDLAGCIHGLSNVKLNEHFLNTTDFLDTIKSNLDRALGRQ
Assay: Inhibition of 2-HG production in IDH2 mutant U-87 MG cells
Assay type: cell-based
Details: 16 hours incubation, 50K cells/well, 100 μl media/well, read-out: Relative IC50 (nM) Mean, inhibition of 2-HG production
MEASURED PROPERTY: IC50 (nM)
A number alone suffices; assume nM.

# IC50 lookup, item C=CC(=O)N1CCN([C@@H](CC2CC2)c2ccc([C@H](C)Nc3ncc4c(n3)N(CC)C(=O)OC4)cc2)CC1 [Compound A]
1280

###

Target: IDH2 R140Q_I319M cis (Homo sapiens, UniProt P48735, I319M/R140Q)
Construct: expressed in transfected cells; host or cells: U-87 MG
Assay: Inhibition of 2-HG production in IDH2 mutant U-87 MG cells
Assay type: cell-based
Conditions: 72 hours incubation, 12.5K cells/well, 150 μl media/well, read-out: IC50, inhibition of 2-HG production
MEASURED PROPERTY: IC50 (nM)
Report the value in nM with no unit label.

Fill blank: measured IC50 of the compound C=CC(=O)N1CCN([C@@H](CC2CC2)c2ccc([C@H](C)Nc3ncc4c(n3)N(CC)C(=O)OC4)cc2)CC1 [Compound A] is ____.
30.4
